Answer each item with its documented composite z-score.
# Test system: Chordin-like protein 2 (CHRDL2)
# ASSAY_NOTES: CHRDL2 small-molecule binders, primary screen, biochemical, small-molecule microarray, 635 nm fluorescence (AID 1126);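 further: printed compound slides probed with Chrdl2 protein at 4 µg/mL for 1 h at 4 C; score merges 667 nm emission intensity with signal to noise over three replicate slides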
# ASSAY_CONTEXT: small-molecule microarray binding, fluorescence 635 nm; higher = more signal
Response field accepts a number only; no unit should be typed.

Recorded composite z-score of `O=C(NO)[C@]1(Cc2ccccc2)N=C(c2ccc(OCCCO)cc2)O[C@@H]1c1ccccc1` , please. -0.671

Recorded composite z-score of `COCCOC(=O)N1C(=O)[C@@]2(c3cc(C#CCNC(N)=O)ccc31)[C@H](c1ccccc1OCCO)N1[C@H](c3ccccc3)[C@H](c3ccccc3)OC(=O)[C@H]1[C@@H]2C(=O)Nc1nc2ccccc2s1` , please. 0.0611

Recorded composite z-score of `C=CC[C@]1(C(=O)N(C)C)N=C(c2ccc(OCCCO)cc2)O[C@H]1c1ccccc1CN=[N+]=[N-]` , please. -0.474

Recorded composite z-score of `C[N+](C)(C)CCCCNC(=O)[C@@H]1C[C@@H]2C(=O)NCC(=O)N2[C@@H]1c1cccc(OCCO)c1` , please. 1.29

Recorded composite z-score of `COCCOC(=O)N1C(=O)[C@@]2(c3cc(C#CC4(O)CCCCCC4)ccc31)[C@H](c1ccc(O)cc1)N1[C@H](c3ccccc3)[C@H](c3ccccc3)OC(=O)[C@H]1[C@@H]2C(N)=O` , please. -0.485

Recorded composite z-score of `C=CCN1C(=O)[C@@]2(O[C@@H](CCO)[C@H]([Si](C)(C)c3ccc(OC)cc3)[C@H]2C)c2cc(N3C(=O)c4cccc5cccc3c45)ccc21` , please. -0.487

Origin of values: PubChem BioAssay
